The entries below are paired with their reported phosphorylation enrichment.
# SYSTEM: FGFR1 (UniProt P11362)
# Sequence (P11362 whole entry, looked up): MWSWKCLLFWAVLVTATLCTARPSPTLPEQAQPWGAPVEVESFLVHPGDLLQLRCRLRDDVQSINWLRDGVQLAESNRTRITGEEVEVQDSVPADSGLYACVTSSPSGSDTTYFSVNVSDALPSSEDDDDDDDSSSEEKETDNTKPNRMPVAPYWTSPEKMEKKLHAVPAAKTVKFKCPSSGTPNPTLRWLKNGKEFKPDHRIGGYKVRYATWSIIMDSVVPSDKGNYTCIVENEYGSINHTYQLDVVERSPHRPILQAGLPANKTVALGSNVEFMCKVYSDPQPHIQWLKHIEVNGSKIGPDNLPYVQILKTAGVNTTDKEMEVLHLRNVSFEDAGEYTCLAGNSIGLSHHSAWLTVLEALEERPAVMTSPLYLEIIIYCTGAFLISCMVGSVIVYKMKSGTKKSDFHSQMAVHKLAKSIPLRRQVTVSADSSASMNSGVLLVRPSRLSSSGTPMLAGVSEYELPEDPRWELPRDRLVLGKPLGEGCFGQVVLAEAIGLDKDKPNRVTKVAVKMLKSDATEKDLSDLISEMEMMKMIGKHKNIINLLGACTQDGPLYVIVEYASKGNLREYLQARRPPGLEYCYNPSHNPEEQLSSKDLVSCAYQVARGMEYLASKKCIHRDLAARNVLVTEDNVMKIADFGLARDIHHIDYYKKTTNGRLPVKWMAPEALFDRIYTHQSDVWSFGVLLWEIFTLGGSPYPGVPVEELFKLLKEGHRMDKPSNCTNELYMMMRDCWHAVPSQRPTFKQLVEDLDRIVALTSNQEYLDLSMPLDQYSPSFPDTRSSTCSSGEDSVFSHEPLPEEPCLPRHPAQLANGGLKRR
# ASSAY_DETAILS: phosphorylation enrichment, bacterial display (enrichment ratio); higher = better substrate or ligand; peptides without Tyr show the background
Write no unit; give the number alone.

* TLKDVYDDGKF [RPS6KA3_Y483_YF] | 0.614

Determine from records and report phosphorylation enrichment for SPFAVYRFFTF [RPGRIP1_Y826_YF]
0.637

Determine from records and report phosphorylation enrichment for DRFDNYIEKVR [DES_Y122_A120D]
0.539

Determine from records and report phosphorylation enrichment for GPSTPYTKSKC [SMARCC2_Y324_R329C]
0.362

Determine from records and report phosphorylation enrichment for CTTFHYNYMCN [TP53_Y234_I232F]
0.696

Determine from records and report phosphorylation enrichment for GDEAIYATVAG [NRTKtide_2018]
3.87

====

# SYSTEM: Fyn (UniProt P06241)
# Sequence (P06241 whole entry, looked up): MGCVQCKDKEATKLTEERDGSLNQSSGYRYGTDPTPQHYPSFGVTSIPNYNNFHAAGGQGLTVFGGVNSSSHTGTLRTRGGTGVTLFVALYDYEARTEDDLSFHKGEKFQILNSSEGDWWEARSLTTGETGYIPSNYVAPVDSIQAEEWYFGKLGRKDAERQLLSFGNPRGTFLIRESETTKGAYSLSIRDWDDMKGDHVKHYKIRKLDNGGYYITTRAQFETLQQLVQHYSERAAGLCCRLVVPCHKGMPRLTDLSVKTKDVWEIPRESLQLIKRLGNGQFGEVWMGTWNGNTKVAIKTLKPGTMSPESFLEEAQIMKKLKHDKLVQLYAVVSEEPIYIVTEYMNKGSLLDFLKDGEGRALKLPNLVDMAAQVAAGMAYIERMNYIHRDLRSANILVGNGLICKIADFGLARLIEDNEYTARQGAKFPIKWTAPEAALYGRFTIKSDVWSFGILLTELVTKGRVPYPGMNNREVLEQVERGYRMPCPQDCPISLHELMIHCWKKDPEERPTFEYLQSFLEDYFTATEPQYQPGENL
# ASSAY_DETAILS: phosphorylation enrichment, bacterial display (enrichment ratio); higher = better substrate or ligand; peptides without Tyr show the background
The entries below are paired with their reported phosphorylation enrichment.
Write no unit; give the number alone.

// known answers, use as guide
* CEHRGYLYLAI [TEK_Y897] | 0.494
* LLREWYMIISR [HUWE1_Y4066] | 0.588
* GENTVYAQVFN [LY9_Y603_M602V] | 6.74
* GKTQQYECKWY [BCR_Y751_D752E] | 0.443
* DVCKNYAKAKD [ALB_Y343_E345K] | 0.428
* DKVFTYIFIME [SCN4A_Y1074] | 0.41
* AACQHYGVRTC [NR4A2_Y275] | 0.452
* IWGKKYPTCNS [PTPRZ1_Y53_N48I] | 0.369

Next sequence, phosphorylation enrichment to be filled in.
Fill in phosphorylation enrichment for EREYKYDAHNY [OAT_Y50_G51D] tested with Fyn (UniProt P06241).
0.434

====

# SYSTEM: Grb2 SH2 (UniProt P62993)
# Sequence (P62993 whole entry, looked up): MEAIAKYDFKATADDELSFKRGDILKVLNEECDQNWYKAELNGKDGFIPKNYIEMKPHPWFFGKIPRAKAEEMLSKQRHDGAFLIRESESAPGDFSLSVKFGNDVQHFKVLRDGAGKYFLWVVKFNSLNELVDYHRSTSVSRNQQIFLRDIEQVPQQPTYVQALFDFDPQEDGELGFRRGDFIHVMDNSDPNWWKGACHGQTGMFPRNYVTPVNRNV
# ASSAY_DETAILS: SH2 binding enrichment of the phosphorylated peptide, bacterial display (enrichment ratio); higher = better substrate or ligand; peptides without Tyr show the background
OBSERVED_PROPERTY: SH2 binding enrichment
Write no unit; give the number alone.

// known answers, use as guide
- IVFTSYVLTIL [TAS2R16_Y239_F240V]: 1.04
- YENGEYIIRQG [PRKG1_Y247]: 37.5
- VVQGIYGYHHH [UFSP2_Y285_Y290H]: 1.11
- LSDGPYSNSYE [EPOR_Y485_P488S]: 0.557
- ALAAPYVLYPG [CEFIP_Y1332]: 0.747

Determine from records and report SH2 binding enrichment for DVFVSYDCGKS [SORL1_Y139_Y141C_YF]
0.964

Determine from records and report SH2 binding enrichment for QSVEPYTKQQL [STAT3_Y640]
0.978

Determine from records and report SH2 binding enrichment for GCCSWYRGWAP [TIMP3_Y195_Y191C]
1.56

====

# Test system: c-Abl (mouse)
# ASSAY_DETAILS: phosphorylation enrichment, bacterial display (enrichment ratio); higher = better substrate or ligand; peptides without Tyr show the background
Returns one of yes (1) or no (0); yes (1) when phosphorylation enrichment is >= 0.8.

Check out these entries, answers already filled in.
• GVRYIYTIDGS [DCX_Y105] = no (0)
• CGTPDYIAPEI [PRKCG_Y521] = no (0)
• KVITDYYVDMK [MPP4_Y566] = no (0)
• YEEDSYVERSQ [RET_Y905_K907E] = no (0)
• CLEKEYFDQHF [NPC1_Y394_R389C] = yes (1)

Now for another entry.
Identify whether the reported phosphorylation enrichment of the following sequence is 0.8 or greater: PTTKTYFLHFD [HBA1_Y43_P45L]
yes (1)

Value source: the supplement of paper PMC10065799
